Each entry below lists one item and its recorded recombinant barcode read abundance (log10) value.
Test: recombinant barcode read abundance after kanamycin selection (control-corrected) (log10(CPM+1)); higher = more efficient recombination; sequences stand for … in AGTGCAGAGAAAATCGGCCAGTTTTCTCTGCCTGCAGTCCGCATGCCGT…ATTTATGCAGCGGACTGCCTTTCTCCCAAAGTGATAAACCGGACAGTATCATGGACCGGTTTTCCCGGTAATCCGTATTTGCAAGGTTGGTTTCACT; site = the 11-nt target
Result Type: recombinant barcode read abundance (log10)

- Residue Sequence: "TAGAGGGCTTGGGTTCTAACCTGTTGCGGAT [TAGAGGGCTCC_LTGcore_CT_RTGcore_AT] (site TAGAGGGCTCC) (LTG core: CT, RTG core: AT)"
  Reading: 0.779
- Residue Sequence: "ATGCTTTAGTGGGTTCTAACCTGTTGCCTCT [ATGCTTTCTAG_LTGcore_AG_RTGcore_AG] (site ATGCTTTCTAG) (LTG core: AG, RTG core: AG)"
  Reading: 0.0908
- Residue Sequence: "GGACACCCTTGGGTTCTAACCTGTTGCCTCC [GGACACCCTAG_LTGcore_CT_RTGcore_GG] (site GGACACCCTAG) (LTG core: CT, RTG core: GG)"
  Reading: 0.904
- Residue Sequence: "TTATAAACCTGGGTTCTAACCTGTTGCCTGG [TTATAAACTAG_LTGcore_CC_RTGcore_CC] (site TTATAAACTAG) (LTG core: CC, RTG core: CC)"
  Reading: 0.0325
